Assay: Screening of Ehrlich ascites carcinoma cells in mice at 20 mg/kg/day intraperitoneally.
Assay type: functional, Mus musculus
Conditions: route intraperitoneal
ascrit listing for selected compounds.
Number only, no unit.

CCC(C)C(NS(=O)(=O)c1ccc(C)cc1)C(=O)C=[N+]=[N-] (stereo unspecified) ... 45.4

Exam item: Identify measured ascrit associated with C=COC(=O)C(Cc1ccccc1)NS(=O)(=O)c1ccc(C)cc1 (stereo unspecified)
Marked response: 19.2

Exam item: Identify measured ascrit associated with Cc1ccc(S(=O)(=O)N2CCCC2C(=O)CCl)cc1 (stereo unspecified)
Marked response: 30

Exam item: Identify measured ascrit associated with CCC(C)C(NS(=O)(=O)c1ccc(C)cc1)C(=O)CCl (stereo unspecified)
Marked response: 34.5

Exam item: Identify measured ascrit associated with Cc1ccc(S(=O)(=O)NCC(=O)C=[N+]=[N-])cc1
Marked response: 56

Exam item: Identify measured ascrit associated with Cc1ccc(S(=O)(=O)N2CCC[C@H]2C(=O)C=[N+]=[N-])cc1
Marked response: 39.8

Exam item: Identify measured ascrit associated with Cc1ccc(S(=O)(=O)NC(C(=O)CCl)C(C)C)cc1 (stereo unspecified)
Marked response: 46.9

Exam item: Identify measured ascrit associated with Cc1ccc(S(=O)(=O)NC(CC(C)C)C(=O)CCl)cc1 (stereo unspecified)
Marked response: 25.5

Exam item: Identify measured ascrit associated with Cc1ccc(S(=O)(=O)NCC(=O)CCl)cc1
Marked response: 0.01

Exam item: Identify measured ascrit associated with Cc1ccc(S(=O)(=O)N2C(=O)CCC2C(=O)CCl)cc1 (stereo unspecified)
Marked response: 31

Exam item: Identify measured ascrit associated with N#CCOC(=O)C(Cc1ccc(O)cc1)NC(=O)OCc1ccccc1 (stereo unspecified)
Marked response: 19.7
